meta.source: paper PMC12510028

Molecular target: T1, Avi-tagged BIN1 SH3 domain (human, UniProt O00499 520-593, biotin within the 15 amino acid AviTag peptide (enzymatic, in E. coli))
T1 construct: human BIN1 (bridging integrator 1), the C-terminal 81 amino acids that encompass the SH3 domain; 12 kDa by the methods; vector pAviBir, insert between BamHI and NotI; also called Avi-BSH3; AviBir-Bin1 SH3; source: E. coli BL21 (DE3), purified (HisTrap HP, Sephacryl S-200 gel filtration); not shown: AviTag, N-terminal, kept
T1 sequence (looked up): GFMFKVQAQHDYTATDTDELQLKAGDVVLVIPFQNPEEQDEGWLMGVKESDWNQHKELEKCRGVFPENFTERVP
Test: SPR; Biacore S200, Biotin CAPture chip; biotinylated Avi-BIN1-SH3 captured on flow cell 2, Avi-tagged CTX-M-14 β-lactamase on reference flow cell 1; peptides injected as analytes at 30 μl/min; 25 °C, 1X PBS-P+; steady-state analysis, 1:1 model
Conditions: both partners purified

binder	reading-qualifier	Kd / µM
PTPPTR (tau, proline-rich domain, minimum consensus class II PRM; The methods tell acetylation and amination of the ends only for the 14-residue peptides; also called tau_(158-163); 6-mer tau peptide; source: synthetic peptide) [tau 6-mer peptide 158-163]	=	288
PPPPPRR (human p140Cap, class IIa PRM of the C-terminal proline-rich domain; source: synthetic peptide) [p140Cap native class IIa 7-mer peptide]	=	31.7
Ac-KPSKSPPAPPARAS-NH2	>	75
TPSLPTPPTREPK (tau, proline-rich domain, class II PRM extended at both ends; The methods tell acetylation and amination of the ends only for the 14-residue peptides; also called tau_(154-166); 13-mer tau peptide; source: synthetic peptide) [tau 13-mer peptide 154-166]	=	484
Ac-KPSKSPPPPPPRRS-NH2 (also called p140Cap_(1033-1046); native 14-mer peptide; source: synthetic peptide (GenScript, reversed-phase HPLC, ≥95% purity)) [p140Cap 14-mer peptide 1033-1046]	=	7.7
